Just for reference, the supplement of paper PMC6755084 is where these values come from.

B1: minF1; the commonest letter at each place (parent)
chain: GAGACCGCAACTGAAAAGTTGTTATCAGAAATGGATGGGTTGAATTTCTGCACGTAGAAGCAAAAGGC

Variants of: B1
protocol details: fraction ligated after 30 min (ligated reads / total reads); higher = more ligase activity
applied conditions: with F1*subA RNA substrate (template-directed ligation), 42 °C
measurement label: fraction ligated
Give bare numbers.

G28A A35T; 0.0165

Could you report fraction ligated for every entry in the following list?
1. G28C A31G
2. G42T A43G A44G

1: 0.798; 2: 0.00264

Could you report fraction ligated for every entry in the following list?
1. T23G C26T
2. A30G G33T

[0.434, 0.672]
